Data origin, for the record: patent US7365162B2

- Test system: E. coli
- ASSAY PROTOCOL: Growth rate analysis in liquid media of cells expressing induced peptides
- Format: cell-based
- TEST CONTEXT: ATG start codon converted to ACG, induced, growth rate
Reported % inhibition versus pLAC11 control (antisense construct) values follow for various molecules
Response body: numeric value in %, unit text excluded.

# MOLECULE, UNITS TEXT, EXPERIMENTAL VALUE
records = [
    ("pPep5-anti: pPep5 insert recloned in pLAC11 with ATG start codon changed to ACG (SEQ ID NO:30) (nucleic acid, expressed or natural sequence) DNA: TACTATAGATCTACGTGGCGGGACTCATGGATTAAGGGTAGGGACGTGGGGTTTATGGGTTAAAATAGTTTGATAATAAGAATTCTCGACA", "%", 0),
]

We next turn to a different molecule, shown below.
State its % inhibition versus pLAC11 control (antisense construct): pPep12-anti: pPep12 insert recloned in pLAC11 with ATG start codon changed to ACG (SEQ ID NO:31) (nucleic acid, expressed or natural sequence) DNA: TACTATAGATCTACGAACGGCCGAACCAAACGAATCCGGGACCCACCAGCCGCCTAAACAGCTACCAGCTGTGGTAATAAGAATTCTCGACA 0
